# tgt: Staphylococcus aureus gyrase (Staphylococcus aureus, UniProt P0A0K8+P20831)
# Construct: purchased Inspiralis, Norwich, UK
# Sequence (P20831 whole entry): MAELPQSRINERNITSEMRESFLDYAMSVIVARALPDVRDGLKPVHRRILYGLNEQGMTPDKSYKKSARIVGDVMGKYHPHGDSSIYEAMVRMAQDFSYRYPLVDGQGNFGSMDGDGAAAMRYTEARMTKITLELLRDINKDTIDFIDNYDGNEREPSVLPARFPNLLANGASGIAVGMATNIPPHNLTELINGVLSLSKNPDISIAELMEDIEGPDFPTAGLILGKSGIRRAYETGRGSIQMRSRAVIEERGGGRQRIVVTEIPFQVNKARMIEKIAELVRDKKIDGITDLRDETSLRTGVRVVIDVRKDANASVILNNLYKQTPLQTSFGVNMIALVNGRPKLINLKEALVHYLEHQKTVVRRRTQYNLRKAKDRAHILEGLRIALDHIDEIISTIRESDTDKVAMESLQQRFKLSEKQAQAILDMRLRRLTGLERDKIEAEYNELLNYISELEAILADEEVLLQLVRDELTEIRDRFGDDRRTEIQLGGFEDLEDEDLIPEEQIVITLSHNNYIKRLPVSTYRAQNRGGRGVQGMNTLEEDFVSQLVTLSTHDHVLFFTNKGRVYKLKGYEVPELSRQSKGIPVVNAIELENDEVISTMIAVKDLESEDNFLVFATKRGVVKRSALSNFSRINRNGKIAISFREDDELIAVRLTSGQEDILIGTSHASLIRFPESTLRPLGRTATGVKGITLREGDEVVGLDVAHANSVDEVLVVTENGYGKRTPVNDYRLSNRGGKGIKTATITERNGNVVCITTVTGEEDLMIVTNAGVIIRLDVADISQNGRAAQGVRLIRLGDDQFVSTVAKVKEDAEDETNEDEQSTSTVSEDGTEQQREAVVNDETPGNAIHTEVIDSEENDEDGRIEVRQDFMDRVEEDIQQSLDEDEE
# Sequence (P0A0K8 whole entry): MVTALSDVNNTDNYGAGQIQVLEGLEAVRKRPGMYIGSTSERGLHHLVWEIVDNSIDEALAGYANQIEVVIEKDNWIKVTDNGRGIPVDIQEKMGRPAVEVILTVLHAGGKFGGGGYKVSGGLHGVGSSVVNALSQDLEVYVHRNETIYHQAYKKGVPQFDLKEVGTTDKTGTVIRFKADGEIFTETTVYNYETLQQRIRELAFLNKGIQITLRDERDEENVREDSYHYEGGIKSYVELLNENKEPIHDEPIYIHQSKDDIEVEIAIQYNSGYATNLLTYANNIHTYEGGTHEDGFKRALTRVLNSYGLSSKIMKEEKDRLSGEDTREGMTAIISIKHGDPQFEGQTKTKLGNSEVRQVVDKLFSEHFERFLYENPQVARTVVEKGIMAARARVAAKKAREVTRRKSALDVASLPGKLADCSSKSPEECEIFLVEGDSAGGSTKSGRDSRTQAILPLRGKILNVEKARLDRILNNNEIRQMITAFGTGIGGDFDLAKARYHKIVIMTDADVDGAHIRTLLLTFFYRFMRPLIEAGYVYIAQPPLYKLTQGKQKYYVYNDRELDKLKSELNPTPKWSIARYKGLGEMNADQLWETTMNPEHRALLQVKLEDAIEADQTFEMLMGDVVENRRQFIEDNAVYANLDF
# protocol notes: Staphylococcus aureus gyrase supercoiling assay
# Format: biochemical
# measurement setup: S. aureus DNA gyrase supercoiling; read-out: Gyrase IC50
Friendly reminder: IC50 below 300 nM is fulfilled, at or above is not fulfilled.

Take a look at these entries with their results.
COc1ccc2nccc(CC[C@H]3OC[C@H](NCc4ccc5c(c4)NC(=O)CO5)CO3)c2c1 : not fulfilled
COc1ccc(CN[C@H]2CO[C@H](CCc3ccnc4ccc(OC)cc34)OC2)cc1 : not fulfilled
COc1ccc2nccc(CC[C@H]3OC[C@H](NCc4ccc5c(n4)NC(=O)CS5)CO3)c2c1 : not fulfilled

Dear colleague, could you confirm whether IC50 of COc1ccc2ncc(F)c(CC[C@H]3OC[C@H](NCc4ccc(F)c(F)c4)CO3)c2n1 falls below 300 nM? Thanks.
not fulfilled

Is the reported IC50 for COc1ccc2ncc(F)c(C(O)C[C@H]3OC[C@H](NCc4cc5c(cn4)OCCO5)CO3)c2c1 (some centres unmarked) strictly below 300 nM?
not fulfilled

Please check: IC50 for COc1ccc2nccc(CC[C@H]3OC[C@H](NCc4ccc(Cl)c(F)c4)CO3)c2c1 , strictly under 300 nM or not?
not fulfilled

Given the entry COc1ccc2nccc(CC[C@H]3OC[C@H](NCc4ccc5c(c4)OCCO5)CO3)c2c1 , would its reported IC50 be below 300 nM?
fulfilled

A record lists COc1ccc2nccc(CC[C@H]3OC[C@H](NCc4ccc(F)c(Cl)c4)CO3)c2c1 . Is its IC50 below 300 nM?
not fulfilled

Criterion: IC50 strictly below 300 nM. Is it met by COc1ccc2nccc(CC[C@H]3OC[C@H](NC/C=C/c4ccccc4)CO3)c2c1 ?
not fulfilled

# strict comparison: is reported IC50 < 300 nM? input = COc1ccc2nccc(CC[C@H]3OC[C@H](NCc4ccc(C#N)cc4)CO3)c2c1
not fulfilled
